Provenance of the data: patent US20030148956A1

molecular target: CRF1R; experiment: cell-based or functional assay
Ends that are not written are not given here.
Could you please report measured CRF1R EC50 for the items listed next?
One number for each entry, in nM.

Some binders with recorded CRF1R EC50:
BINDER: ZGPPISIDLPFHLLRKMIEIEKQEKEKQQAANNRLLLDTI (C-terminal amide) [SEQ ID NO 69]
UNITS OF MEASURE: nM
CRF1R EC50: 34.5

BINDER: ZGPPISIDLPYLLLRKMIEIEKQEKEKQQAANNRLLLDTI (C-terminal amide) [SEQ ID NO 203]
UNITS OF MEASURE: nM
CRF1R EC50: 76.2

Go through the list and state CRF1R EC50 for each entry.
1. ZGPPISIDLPYHLLRKMIEIEKQEKEKQQAANNRLLLDTI (C-terminal amide) [SEQ ID NO 208]
2. ZGPPISIDLPFQLLRKMIEIEKQEKEKQQATTNARLLARV (C-terminal amide) [SEQ ID NO 23]
3. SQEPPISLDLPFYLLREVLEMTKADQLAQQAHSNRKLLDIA-NH2 [SEQ ID NO 96]
4. SQEPPISLDLPIGLLREVLEMTKADQLAQQAHSNRKLLDIA-NH2 [SEQ ID NO 93]

1. 64.9
2. 1000
3. 100
4. 100

Go through the list and state CRF1R EC50 for each entry.
1. ZGPPISIDLPLHLLRKMIEIEKQEKEKQQAANNRLLLDTI (C-terminal amide) [SEQ ID NO 83]
2. ZGPPISIDLPFQLLRKMIEIEKQEKEKQQATTNRLLLATV (C-terminal amide) [SEQ ID NO 17]

[52.2, 260]
